test system: Mannheimia haemolytica; test: minimum inhibitory concentration (MIC); conditions: isolate (source animal id): 13
MEASURED_PROPERTY: minimum inhibitory concentration (µg/mL)
Numbers only, in µg/mL.

// solved cases for minimum inhibitory concentration follow
• CS(=O)(=O)c1ccc([C@@H](O)[C@@H](CF)NC(=O)C(Cl)Cl)cc1 = 1
• CN1C[C@@H]2C[C@H]1CN2c1cc2c(cc1F)c(=O)c(C(=O)O)cn2C1CC1 = 0.5

Below: the item to evaluate.
Please fill in: minimum inhibitory concentration reported for "CC[C@H]1OC(=O)C[C@@H](O)[C@H](C)[C@@H](O[C@@H]2O[C@H](C)[C@@H](O)[C@H](N(C)C)[C@H]2O)[C@@H](CCN2C[C@H](C)C[C@H](C)C2)C[C@@H](C)C(=O)/C=C/C(C)=C/[C@@H]1CO[C@@H]1O[C@H](C)[C@@H](O)[C@@H](OC)[C@H]1OC" = 4

###

test system: Escherichia coli; assay: minimum inhibitory concentration (MIC); conditions: isolate (source animal id): 16
Assignment: determine reported minimum inhibitory concentration for the given molecules.

// solved cases for minimum inhibitory concentration follow
- CS(=O)(=O)c1ccc([C@@H](O)[C@@H](CF)NC(=O)C(Cl)Cl)cc1: > 8 µg/mL
- CCC[C@@H]1C[C@@H](C(=O)N[C@@H]([C@H]2O[C@H](SC)[C@H](O)[C@@H](O)[C@H]2O)[C@H](C)Cl)N(C)C1: > 16 µg/mL

Each of the following entries comes with a recorded value; kindly state minimum inhibitory concentration for each.
1. CO/N=C(\C(=O)N[C@@H]1C(=O)N2C(C(=O)O)=C(CSC(=O)c3ccco3)CS[C@H]12)c1csc(N)n1
2. CN1C[C@@H]2C[C@H]1CN2c1cc2c(cc1F)c(=O)c(C(=O)O)cn2C1CC1

output:
["0.5 µg/mL", "≤ 0.12 µg/mL"]

###

test system: Histophilus somni; assay: minimum inhibitory concentration (MIC); conditions: isolate (source animal id): 230
MEASURED_PROPERTY: minimum inhibitory concentration

// solved cases for minimum inhibitory concentration follow
* CCCNC[C@]1(O)[C@H](C)O[C@@H](O[C@H]2[C@H](C)[C@@H](O[C@@H]3O[C@H](C)C[C@H](N(C)C)[C@H]3O)[C@](C)(O)C[C@@H](C)CN[C@H](C)[C@@H](O)[C@](C)(O)[C@@H](CC)OC(=O)[C@@H]2C)C[C@@]1(C)OC [Tulathromycin] | ≤ 8 µg/mL
* CN[C@@H]1[C@H](O)[C@H](NC)[C@H]2O[C@@]3(O)C(=O)C[C@@H](C)O[C@H]3O[C@@H]2[C@H]1O [Spectinomycin] | > 64 µg/mL
* CCN1CCN(c2cc3c(cc2F)c(=O)c(C(=O)O)cn3C2CC2)CC1 [Enrofloxacin] | ≤ 0.12 µg/mL

Below: the item to evaluate.
Please fill in: minimum inhibitory concentration reported for CC[C@H]1OC(=O)C[C@@H](O)[C@H](C)[C@@H](O[C@@H]2O[C@H](C)[C@@H](O[C@H]3C[C@@](C)(O)[C@@H](O)[C@H](C)O3)[C@H](N(C)C)[C@H]2O)[C@@H](CC=O)C[C@@H](C)C(=O)/C=C/C(C)=C/[C@@H]1CO[C@@H]1O[C@H](C)[C@@H](O)[C@@H](OC)[C@H]1OC [Tylosin] = 32 µg/mL
